- study_target: Calcitonin gene-related peptide type 1 receptor (Homo sapiens, UniProt O60894+Q16602)
- Sequence (Q16602 whole entry, one chain of several): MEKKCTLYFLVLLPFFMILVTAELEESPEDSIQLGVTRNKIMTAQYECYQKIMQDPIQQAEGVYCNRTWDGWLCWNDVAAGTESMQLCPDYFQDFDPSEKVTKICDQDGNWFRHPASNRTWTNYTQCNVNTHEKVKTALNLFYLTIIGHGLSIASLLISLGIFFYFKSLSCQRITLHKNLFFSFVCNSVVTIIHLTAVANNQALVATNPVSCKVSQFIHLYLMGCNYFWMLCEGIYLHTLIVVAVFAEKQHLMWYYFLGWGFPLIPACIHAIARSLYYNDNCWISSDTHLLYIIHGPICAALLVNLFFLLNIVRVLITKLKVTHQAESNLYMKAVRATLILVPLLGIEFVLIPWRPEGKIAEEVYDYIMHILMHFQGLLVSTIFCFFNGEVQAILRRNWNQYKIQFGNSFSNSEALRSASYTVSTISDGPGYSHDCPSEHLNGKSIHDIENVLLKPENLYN
- measurement_notes: Displacement of [125I]CGRP from CGRP receptor in human SK-N-MC cell membranes preincubated for 30 mins followed by radioligand addition measured after 2 hrs by liquid scintillation counting
pKi: −log10 of the molar value.
endpoint: pKi

[1] CC(C)(C)CCN1C(=O)C(CC(=O)N2CCC(N3Cc4ccccc4NC3=O)CC2)SC1c1ccccc1N1CCN(CCO)CC1 (centres undefined)
[2] CC(c1ccccc1)N1C(=O)C(CC(=O)N2CCC(N3Cc4ccccc4NC3=O)CC2)SC1c1ccccc1 (centres undefined)
### Prompt I would appreciate it if you could say which entry, 1 or 2 , has the lower pKi value. Use the label to indicate which entry you chose.
### Response 2
(2: 6.53, 1: 8.10)

[1] CC(C)CCN(Cc1cc(Br)c(O)c(Br)c1)C(=O)CCC(=O)N1CCC(N2Cc3ccccc3NC2=O)CC1
[2] CN1CCN(c2ccccc2C2SC(CC(=O)N3CCC(N4CCc5ccccc5NC4=O)CC3)C(=O)N2CCC(C)(C)C)CC1 (centres undefined)
### Prompt I would appreciate it if you could say which entry, 1 or 2 , has the lower pKi value. Use the label to indicate which entry you chose.
### Response 1
(1: 6.55, 2: 8.70)

###

- Tested on: Rattus norvegicus
- measurement_notes: AUC in po dosed rat
- Assay type: ADME, organism-based, Plasma
- particulars: in vivo
endpoint: AUC (ng·h/mL)
Use ng·h/mL as the unit, but write only the number.

Recorded AUC for `NCCCC[C@H](NC(=O)[C@@H](Cc1cc(Br)c(O)c(Br)c1)NC(=O)N1CCC(N2Cc3ccccc3NC2=O)CC1)C(=O)N1CCN(c2ccncc2)CC1` on Rattus norvegicus was 260

###

- measurement_notes: Clearance in iv dosed rat
- Format: ADME, organism-based
- particulars: in vivo
endpoint: clearance (L/h/kg)
Use L/h/kg as the unit, but write only the number.

clearance recorded for this compound, NCCCC[C@H](NC(=O)[C@@H](Cc1cc(Br)c(O)c(Br)c1)NC(=O)N1CCC(N2Cc3ccccc3NC2=O)CC1)C(=O)N1CCN(c2ccncc2)CC1 [OLCEGEPANT] , is 3.9

###

- measurement_notes: Oral bioavailability in rat
- Type: ADME, organism-based
- particulars: in vivo
endpoint: bioavailability

bioavailability recorded for this compound, NCCCC[C@H](NC(=O)[C@@H](Cc1cc(Br)c(O)c(Br)c1)NC(=O)N1CCC(N2Cc3ccccc3NC2=O)CC1)C(=O)N1CCN(c2ccncc2)CC1 [OLCEGEPANT] , is < 1%

###

- study_target: Calcitonin gene-related peptide type 1 receptor (Homo sapiens, UniProt O60894+Q16602)
- measurement_notes: Antagonist activity at CGRP receptor in human SK-N-MC cells assessed as inhibition of CGRP-stimulated cAMP production preincubated for 30 mins followed by CGRP addition measured after 3 hrs by beta-lactamase reporter gene-based FRET assay
endpoint: IC50 (nM)

[1] CC(C)(C)CCN1C(=O)C(CC(=O)N2CCC(N3Cc4ccccc4NC3=O)CC2)SC1c1ccc(F)cc1F (centres undefined)
[2] CC(C)(C)CCN1C(=O)C(CC(=O)N2CCC(N3Cc4ccccc4NC3=O)CC2)SC1c1ccccc1-c1cccnc1 (centres undefined)
[3] O=C(CC1SC(c2ccccc2)N(c2ccccc2)C1=O)N1CCC(N2Cc3ccccc3NC2=O)CC1 (centres undefined)
[4] O=C(CC1SC(c2ccccc2)N(CC2CCCO2)C1=O)N1CCC(N2Cc3ccccc3NC2=O)CC1 (centres undefined)
### Prompt Using the list above, order everything by rising IC50. List the labels, following the order given in the request.
### Response 2, 1, 4, 3
(2: 88 nM, 1: 190 nM, 4: 520 nM, 3: 2940 nM)

###

- study_target: Calcitonin gene-related peptide type 1 receptor (Homo sapiens, UniProt O60894+Q16602)
- measurement_notes: Antagonist activity at CGRP receptor in human SK-N-MC cells assessed as inhibition of CGRP-stimulated cAMP production preincubated for 30 mins followed by CGRP addition measured after 3 hrs by beta-lactamase reporter gene-based FRET assay
endpoint: IC50 (nM)

>  <compound>
CC(C)CN1C(=O)C(CC(=O)N2CCC(N3Cc4ccccc4NC3=O)CC2)SC1c1ccccc1 (stereo not drawn)

>  <IC50, nM>
370

$$$$
>  <compound>
CC(C)(C)CN1C(=O)C(CC(=O)N2CCC(N3Cc4ccccc4NC3=O)CC2)SC1c1ccccc1 (stereo not drawn)

>  <IC50, nM>
250

$$$$
>  <compound>
CC(C)N1CCN(c2c(F)cccc2C2SC(CC(=O)N3CCC(N4CCc5ccccc5NC4=O)CC3)C(=O)N2CCC(C)(C)C)CC1 (stereo not drawn)

>  <IC50, nM>
1

$$$$
>  <compound>
O=C(CC1SC(c2ccccc2)N(C2CCCCC2)C1=O)N1CCC(N2Cc3ccccc3NC2=O)CC1 (stereo not drawn)

>  <IC50, nM>
710

$$$$
>  <compound>
CC(C)(C)CCN1C(=O)C(CC(=O)N2CCC(N3Cc4ccccc4NC3=O)CC2)SC1c1ccccc1N1CCC(O)CC1 (stereo not drawn)

>  <IC50, nM>
44

$$$$
>  <compound>
CN1CCN(c2cccc(F)c2C2SC(CC(=O)N3CCC(N4CCc5ccccc5NC4=O)CC3)C(=O)N2CCC(C)(C)C)CC1 (stereo not drawn)

>  <IC50, nM>
65

$$$$

[A] CC(C)(C)CCN1C(=O)C(CC(=O)N2CCC(N3Cc4ccccc4NC3=O)CC2)SC1c1ccccc1F (stereo not drawn)
[B] CCN1CCN(c2c(F)cccc2C2SC(CC(=O)N3CCC(N4CCc5ccccc5NC4=O)CC3)C(=O)N2CCC(C)(C)C)CC1 (stereo not drawn)
### Prompt I would appreciate it if you could say which entry, A or B , has the lower IC50 value. Use the label to indicate which entry you chose.
### Response B

###

- Tested on: Rattus norvegicus
- measurement_notes: AUC in rat at 30 mg/kg, po
- Type: ADME, organism-based, Plasma
- Set-up: dose 30 mg/kg, route oral
- particulars: in vivo
endpoint: AUC (µg·h/mL)
Use µg·h/mL as the unit, but write only the number.

AUC recorded for this compound, CN1CCN(c2ccccc2C2SC(CC(=O)N3CCC(N4Cc5ccccc5NC4=O)CC3)C(=O)N2CCC(C)(C)C)CC1 (stereo unspecified) , is 1.6

###

- Test system: Rattus norvegicus
- measurement_notes: Cmax in po dosed rat
- Type: ADME, organism-based
- Parameters: route oral
- particulars: in vivo
endpoint: Cmax (ng/mL)
Use ng/mL as the unit, but write only the number.

Cmax recorded for this compound, NCCCC[C@H](NC(=O)[C@@H](Cc1cc(Br)c(O)c(Br)c1)NC(=O)N1CCC(N2Cc3ccccc3NC2=O)CC1)C(=O)N1CCN(c2ccncc2)CC1 [OLCEGEPANT] , is 870

###

- Test system: Rattus norvegicus
- measurement_notes: AUC in rat at 10 mg/kg, po
- Format: ADME, organism-based, Plasma
- Parameters: dose 10 mg/kg, route oral
- particulars: in vivo
endpoint: AUC (ng·h/mL)

>  <molecule>
CC(C)(C)CCN1C(=O)[C@H](CC(=O)N2CCC(N3CCc4ccccc4NC3=O)CC2)S[C@@H]1c1cccc(F)c1N1CCN(C(C)(C)C)CC1

>  <endpoint>
AUC

>  <experimental_result>
530

$$$$

[I] CC(C)N1CCN(c2c(F)cccc2C2SC(CC(=O)N3CCC(N4CCc5ccccc5NC4=O)CC3)C(=O)N2CCC(C)(C)C)CC1 (stereo not drawn)
[II] O=C(N[C@@H]1CC[C@@H](c2cccc(F)c2F)CN(CC(F)(F)F)C1=O)N1CCC(n2c(=O)[nH]c3ncccc32)CC1
### Prompt Response body: label of entry with the larger AUC; valid values I , II . Use the label to indicate which entry you chose.
### Response II
(II: 3320 ng·h/mL, I: 650 ng·h/mL)

###

- study_target: Calcitonin gene-related peptide type 1 receptor (Homo sapiens, UniProt O60894+Q16602)
- measurement_notes: Displacement of [125I]CGRP from CGRP receptor in human SK-N-MC cell membranes preincubated for 30 mins followed by radioligand addition measured after 2 hrs by liquid scintillation counting
pKi: −log10 of the molar value.
endpoint: pKi

Worked cases, pKi given:
>  <compound>
CC(C)(C)CCN1C(=O)C(CC(=O)N2CCC(N3Cc4ccccc4NC3=O)CC2)SC1c1ccccc1-n1cccn1 (centres undefined)

>  <endpoint>
pKi

>  <experimental_result>
7.40

$$$$
>  <compound>
CC(C)(C)CCN1C(=O)C(CC(=O)N2CCC(N3Cc4ccccc4NC3=O)CC2)SC1c1ccccc1-c1ccncc1 (centres undefined)

>  <endpoint>
pKi

>  <experimental_result>
7.70

$$$$

[I] CC(C)(C)CCN1C(=O)C(CC(=O)N2CCC(N3Cc4ccccc4NC3=O)CC2)SC1c1ccccc1N1CCC(O)CC1 (centres undefined)
[II] CC(C)(C)CCN1C(=O)C(CC(=O)N2CCC(N3Cc4ccccc4NC3=O)CC2)SC1c1cccc(F)c1F (centres undefined)
### Prompt Response body: label of entry with the larger pKi; valid values I , II . Use the label to indicate which entry you chose.
### Response I
(I: 7.74, II: 6.93)
